Biological target: T1, SWSAP1 K18A (Walker A);hSWS1 (Homo sapiens;Homo sapiens, UniProt Q6NVH7;Q19AV6 22-250;1-140, K39A|)
T1 sequence 1: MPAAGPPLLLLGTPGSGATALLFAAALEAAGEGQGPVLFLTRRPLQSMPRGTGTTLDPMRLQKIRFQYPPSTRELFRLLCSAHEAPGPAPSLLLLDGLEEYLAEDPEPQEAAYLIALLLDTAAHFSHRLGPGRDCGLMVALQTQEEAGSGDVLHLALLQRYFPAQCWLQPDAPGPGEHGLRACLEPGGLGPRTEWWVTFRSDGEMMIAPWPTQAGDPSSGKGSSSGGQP
T1 sequence 2: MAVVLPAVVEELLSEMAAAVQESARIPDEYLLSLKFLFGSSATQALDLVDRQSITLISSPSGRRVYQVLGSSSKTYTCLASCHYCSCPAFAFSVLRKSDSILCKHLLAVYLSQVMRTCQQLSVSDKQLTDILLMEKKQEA
Assay: fluorescence polarization; 2 mM ATP; FPA: 5 nM 6-FAM DNA, 37 C, 2 mM nucleotide where stated (buffer not given in material); EMSA: 0.05 uM 6-FAM DNA, 5%/15% native PAGE; RAD51 filaments: 2 mM ATP
Settings: protein: recombinant;recombinant; tags: N-terminal 6xHis-TEV, cleaved;none; copies: 1;1; label: 3' 6-FAM on strand 1; fork 1:2, 19 bp duplex, 20 nt arms
Metric: Kd (µM)
Only the number, expressed in µM, is required.

Give a short answer stating reported Kd for Fork (dsDNA) DNA 1: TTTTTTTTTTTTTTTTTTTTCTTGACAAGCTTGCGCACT DNA 2: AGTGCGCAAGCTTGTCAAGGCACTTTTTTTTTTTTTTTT .
8.2

Values from paper PMC12167799
